target: Integrin alpha-4 (Homo sapiens); test: inhibition in human VLA-4 binding assay, primary screen, VLA-4 allosteric modulator project, MLPCN library, flow cytometry, VLA-4 expressing cells (AID 2557); settings: ligand binding flow cytometry, hits give high values, about 7 µM as worked out from the volumes in the protocol
Among all 330,000 compounds or so, about 650 (0.2%) were called active. The entries come from a sample that favours actives as a whole.
Recorded measurements of inhibition, one per entry
MEASUREMENT_TYPE: inhibition

> print(dat)
                                        smi       test.result
1  O=C(NCc1ccc2c(c1)OCO2)C12CC3CC(CC(C3)C1)C2  0.46% (inactive)
2    COc1cc(OC)cc(C(=O)NCC(=O)N2CCCCCCC2)c1  2.18% (inactive)
3  Cc1cc(C)cc(C(=O)NCC(=O)OCC(=O)N2CCCCC2)c1    51.9% (active)
4  COC(=O)[C@@]12CCCN1[C@H](c1ccc(-c3ccc(F)cc3)c(OC)c1)[C@H]1C(=O)N(C)C(=O)[C@H]12  21.7% (inactive)
5     Cn1cnc2c1c(=O)n(Cc1ccccc1C#N)c(=O)n2C  0.49% (inactive)

---

molecular target: Integrin alpha-4 (Homo sapiens) (UniProt P13612); experiment: inhibition in human VLA-4 binding assay, primary screen, VLA-4 allosteric modulator project, MLPCN library, flow cytometry, VLA-4 expressing cells (AID 2557); settings: ligand binding flow cytometry, about 7 µM as worked out from the volumes in the protocol
Sequence (P13612 whole entry, looked up): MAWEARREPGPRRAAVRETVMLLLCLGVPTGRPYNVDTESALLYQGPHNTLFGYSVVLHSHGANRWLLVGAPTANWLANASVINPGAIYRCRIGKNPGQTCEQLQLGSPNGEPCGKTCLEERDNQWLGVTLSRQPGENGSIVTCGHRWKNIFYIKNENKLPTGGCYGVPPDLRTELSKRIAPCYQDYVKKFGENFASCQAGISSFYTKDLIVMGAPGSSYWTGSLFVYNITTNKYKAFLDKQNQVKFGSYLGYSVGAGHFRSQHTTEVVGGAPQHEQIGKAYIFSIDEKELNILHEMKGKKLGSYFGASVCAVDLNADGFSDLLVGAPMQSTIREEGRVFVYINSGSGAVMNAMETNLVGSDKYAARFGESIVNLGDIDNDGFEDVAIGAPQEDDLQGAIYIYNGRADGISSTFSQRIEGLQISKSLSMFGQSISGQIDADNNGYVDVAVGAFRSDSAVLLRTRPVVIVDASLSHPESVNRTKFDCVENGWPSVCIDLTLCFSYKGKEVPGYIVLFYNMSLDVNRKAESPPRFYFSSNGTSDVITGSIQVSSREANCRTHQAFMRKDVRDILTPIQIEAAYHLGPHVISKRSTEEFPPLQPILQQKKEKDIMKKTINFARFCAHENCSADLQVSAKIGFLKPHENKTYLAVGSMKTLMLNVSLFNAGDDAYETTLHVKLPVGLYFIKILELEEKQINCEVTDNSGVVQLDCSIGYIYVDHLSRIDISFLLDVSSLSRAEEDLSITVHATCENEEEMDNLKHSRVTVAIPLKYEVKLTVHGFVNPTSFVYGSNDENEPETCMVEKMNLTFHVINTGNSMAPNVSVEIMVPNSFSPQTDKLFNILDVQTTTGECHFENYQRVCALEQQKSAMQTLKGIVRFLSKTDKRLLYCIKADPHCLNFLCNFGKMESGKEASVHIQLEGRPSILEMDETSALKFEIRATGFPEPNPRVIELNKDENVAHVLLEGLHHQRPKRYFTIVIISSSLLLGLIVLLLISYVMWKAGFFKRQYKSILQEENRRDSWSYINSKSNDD
The whole screen tested about 330,000 compounds, of which about 650 (0.2%) were called active. Cut-off read from the data, not from the text of the source: active = inhibition above about 50%; inactive = the rest. This is one part of a sample in which actives are shown more often than they occur.
Outcomes: active, inactive

> print(dat)
                                    molecule                       experimental.target  discrete.label
 1  COc1cccc(N(C(=O)c2snc(C(N)=O)c2N)C(C(=O)NCC2CCCO2)c2c[nH]c3ccccc23)c1 (stereo not given)  Integrin alpha-4 (Homo sapiens) (UniProt P13612)        inactive
 2  Cc1cc(C(=O)OCC(=O)Nc2ccc(F)c(F)c2)c(C)o1  Integrin alpha-4 (Homo sapiens) (UniProt P13612)          active
 3        O=C(CCNC(=O)c1ccccc1Cl)NN=Cc1ccco1  Integrin alpha-4 (Homo sapiens) (UniProt P13612)        inactive
 4  Cn1c(=NC(=O)c2ccc3c(c2)OCCO3)sc2cc(S(C)(=O)=O)ccc21  Integrin alpha-4 (Homo sapiens) (UniProt P13612)        inactive
 5   Cc1cccc(C)c1N1CCN(S(=O)(=O)N2CCCCC2)CC1  Integrin alpha-4 (Homo sapiens) (UniProt P13612)        inactive
 6  COc1cccc(C2=CC(=O)C[C@H](c3ccc(F)cc3)C2)c1OC  Integrin alpha-4 (Homo sapiens) (UniProt P13612)        inactive
 7  O=C(NN1C(=O)C2C3C=CC(C4CC34)C2C1=O)c1ccc(Cl)cc1 (stereo not given)  Integrin alpha-4 (Homo sapiens) (UniProt P13612)        inactive
 8  O=C(CSc1ncnc2sccc12)NC1CCS(=O)(=O)C1 (stereo not given)  Integrin alpha-4 (Homo sapiens) (UniProt P13612)        inactive
 9  CCOC(=O)c1ccc(NC(=O)c2ccc(NC(=O)C3CCCO3)cc2)cc1 (stereo not given)  Integrin alpha-4 (Homo sapiens) (UniProt P13612)        inactive
10  COc1ccccc1N(C(=O)Cn1nnc2ccccc21)C(C(=O)NCc1ccco1)c1ccc(C)o1 (stereo not given)  Integrin alpha-4 (Homo sapiens) (UniProt P13612)        inactive
11              Cc1cnc(NC(=O)CSc2nnc(C)s2)s1  Integrin alpha-4 (Homo sapiens) (UniProt P13612)          active
12       CCCNS(=O)(=O)c1ccc2c(c1)CCCN2C(C)=O  Integrin alpha-4 (Homo sapiens) (UniProt P13612)        inactive
13  Cc1cc(C(=O)OC(C)C(=O)Nc2cccc(S(=O)(=O)N3CCOCC3)c2)c(C)o1 (stereo not given)  Integrin alpha-4 (Homo sapiens) (UniProt P13612)        inactive
14  O=C(CN1CCC(NC(=O)Nc2ccccc2)CC1)Nc1cccc([N+](=O)[O-])c1  Integrin alpha-4 (Homo sapiens) (UniProt P13612)          active
15       Cc1ccc(OCC(=O)NNC(=S)NCc2ccccc2)cc1  Integrin alpha-4 (Homo sapiens) (UniProt P13612)        inactive
16  CCOC(=O)C1(CCOc2ccccc2)CCN(Cc2cc(OC)c(O)cc2Cl)CC1  Integrin alpha-4 (Homo sapiens) (UniProt P13612)        inactive
17  Cc1ccc2nc(SCc3cn4c(C)cc(C)nc4n3)[nH]c2c1  Integrin alpha-4 (Homo sapiens) (UniProt P13612)        inactive
18  CCCCn1c(N)c(N(CCC(C)C)C(=O)COC(=O)c2cccnc2OCC)c(=O)[nH]c1=O  Integrin alpha-4 (Homo sapiens) (UniProt P13612)        inactive
19  Cc1c(CN2CCC(CO)(CCOc3ccccc3)CC2)[nH]c2ccc(Cl)cc12  Integrin alpha-4 (Homo sapiens) (UniProt P13612)          active
20        CSc1nc(-c2ccco2)nn1C(=O)CCc1ccccc1  Integrin alpha-4 (Homo sapiens) (UniProt P13612)          active
21  O=C(Nc1ccccc1Cl)NC1(C(=O)N2CCOCC2)CCCCC1  Integrin alpha-4 (Homo sapiens) (UniProt P13612)        inactive
22        CCNC(=S)NNC(=O)C1CCN(Cc2ccccc2)CC1  Integrin alpha-4 (Homo sapiens) (UniProt P13612)        inactive
23  CN1CCN(CC(=O)Nc2cccc([N+](=O)[O-])c2)CC1  Integrin alpha-4 (Homo sapiens) (UniProt P13612)        inactive
24        Cc1ccc(NC(=O)OCCNC(=O)c2ccncc2)cc1  Integrin alpha-4 (Homo sapiens) (UniProt P13612)        inactive
25  CCN(CC)S(=O)(=O)c1ccc(OC)c(NC(=O)CCc2c(C)noc2C)c1  Integrin alpha-4 (Homo sapiens) (UniProt P13612)        inactive
26  COC(=O)[C@@H]1C[C@H]2CC[C@H](O)C[C@H]2N1Cc1ccc(N2CCN(C)CC2)cc1  Integrin alpha-4 (Homo sapiens) (UniProt P13612)        inactive
27  COC(=O)N/N=C/c1cn(CCCOc2ccc(C)cc2)c2ccccc12  Integrin alpha-4 (Homo sapiens) (UniProt P13612)        inactive
28  CC1(C)S[C@@H]2[C@H](N=CN3CCCCCC3)C(=O)N2[C@H]1C(=O)O  Integrin alpha-4 (Homo sapiens) (UniProt P13612)        inactive
29       FC(F)Oc1ccccc1NC(=S)Nc1cccc(Cl)c1Cl  Integrin alpha-4 (Homo sapiens) (UniProt P13612)        inactive
30  COc1cc(C(C(=O)NC2CCCC2)N(C(=O)c2ccco2)c2ccccc2C(C)=O)cc(OC)c1OC (stereo not given)  Integrin alpha-4 (Homo sapiens) (UniProt P13612)        inactive
31  COCCN1C(=O)C(=O)/C(=C(/O)c2ccc(S(=O)(=O)N3CCCCC3)cc2)C1c1ccc(OC)c(OC)c1 (stereo not given)  Integrin alpha-4 (Homo sapiens) (UniProt P13612)        inactive
32  Cc1cccc(NC(=O)NC2(C)CCS(=O)(=O)C2)c1 (stereo not given)  Integrin alpha-4 (Homo sapiens) (UniProt P13612)        inactive
33  COC(=O)N/N=C/c1c[n+]([O-])c2ccccc2[n+]1[O-]  Integrin alpha-4 (Homo sapiens) (UniProt P13612)          active
34  Cc1cccc(OCCCC(=O)Nc2ccc(S(=O)(=O)N3CCCC3)cc2)c1  Integrin alpha-4 (Homo sapiens) (UniProt P13612)        inactive
35        COCCCn1c(-c2cccs2)nc2nc3ccccc3nc21  Integrin alpha-4 (Homo sapiens) (UniProt P13612)        inactive
